meta.source: patent US7915268B2

System: Jak3 (Homo sapiens)
Sequence (P52333 508-1124): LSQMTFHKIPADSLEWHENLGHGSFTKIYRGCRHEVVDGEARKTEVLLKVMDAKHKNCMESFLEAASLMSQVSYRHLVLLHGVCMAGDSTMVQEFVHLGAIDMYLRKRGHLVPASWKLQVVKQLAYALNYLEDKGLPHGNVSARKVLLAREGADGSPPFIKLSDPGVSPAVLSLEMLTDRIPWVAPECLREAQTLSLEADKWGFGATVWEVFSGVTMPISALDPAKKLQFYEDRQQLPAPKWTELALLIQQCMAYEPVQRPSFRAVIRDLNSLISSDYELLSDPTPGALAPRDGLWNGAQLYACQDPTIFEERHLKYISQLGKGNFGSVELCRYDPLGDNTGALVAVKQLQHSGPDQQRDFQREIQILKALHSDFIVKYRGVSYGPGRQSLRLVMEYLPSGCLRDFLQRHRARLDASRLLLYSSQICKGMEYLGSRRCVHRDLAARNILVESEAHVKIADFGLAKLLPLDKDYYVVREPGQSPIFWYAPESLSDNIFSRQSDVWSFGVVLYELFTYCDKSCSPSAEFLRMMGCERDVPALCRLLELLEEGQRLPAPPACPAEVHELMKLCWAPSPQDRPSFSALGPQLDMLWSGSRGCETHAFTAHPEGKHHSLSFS
pIC50: −log10 of the molar value.
Assay readout: pIC50

{"Compound": "Fc1ccc2ncn(-c3ncc4nc(-c5ccc(F)nc5)n([C@@H]5CCOc6c(F)cccc65)c4n3)c2c1 [Example 103]", "pIC50": "> 7.00"}
{"Compound": "Fc1ccc2ncn(-c3ncc4nc(-c5ccc[nH]5)n(C5CCOCC5)c4n3)c2c1 [Example 62]", "pIC50": "> 7.00"}
{"Compound": "Cc1ccc(-c2nc3cnc(-n4cnc5ccc(F)cc54)nc3n2C2CCOCC2)o1 [Example 52]", "pIC50": "6.00 to 7.00"}

Tell me the measured pIC50 of COC1CCN([C@H]2C(C)=Nc3cnc(-n4cnc5ccc(F)cc54)nc32)CC1 [Example 21] , please.
6.00 to 7.00

CCCc1nc2cnc(-n3cnc4ccc(C#N)cc43)nc2n1C1CCOc2ccc(F)cc21 (stereo not shown) [Example 22] , same question.
> 7.00

---

The following compounds are listed with their measured IC50 values.
System: Jak3 (Homo sapiens)
Sequence (P52333 508-1124): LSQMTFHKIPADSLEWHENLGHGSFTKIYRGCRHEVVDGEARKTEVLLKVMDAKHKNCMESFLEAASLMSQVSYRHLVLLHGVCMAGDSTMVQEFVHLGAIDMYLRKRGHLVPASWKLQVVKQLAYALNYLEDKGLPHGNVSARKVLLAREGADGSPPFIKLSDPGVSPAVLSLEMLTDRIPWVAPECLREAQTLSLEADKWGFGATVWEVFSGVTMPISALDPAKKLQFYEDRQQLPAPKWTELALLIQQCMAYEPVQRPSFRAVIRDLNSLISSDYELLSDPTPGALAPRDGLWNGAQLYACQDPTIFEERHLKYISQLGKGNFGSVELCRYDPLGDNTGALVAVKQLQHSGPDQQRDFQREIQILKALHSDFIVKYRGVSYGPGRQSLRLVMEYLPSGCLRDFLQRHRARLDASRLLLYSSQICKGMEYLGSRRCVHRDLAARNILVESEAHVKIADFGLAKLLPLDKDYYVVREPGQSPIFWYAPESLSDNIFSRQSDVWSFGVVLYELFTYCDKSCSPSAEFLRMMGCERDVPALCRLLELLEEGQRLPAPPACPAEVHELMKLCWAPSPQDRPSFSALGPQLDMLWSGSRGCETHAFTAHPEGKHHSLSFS

Worked cases, IC50 given:
{"Compound": "N#Cc1ccc2ncn(-c3ncc4nc(-c5cncnc5)n([C@@H]5CCOc6c(F)cc(F)cc65)c4n3)c2c1", "IC50": "< 100 nM"}
{"Compound": "Fc1cccc2c1COC[C@H]2n1c(-c2ccccc2)nc2cnc(-n3cnc4ccccc43)nc21", "IC50": "100 to 1000 nM"}
{"Compound": "Cc1nc2cnc(-n3cnc4ccc(OC(F)(F)F)cc43)nc2n1[C@@H]1CCOc2c(F)cccc21", "IC50": "100 to 1000 nM"}
{"Compound": "c1ccc(-c2nc3cnc(-n4cnc5ccccc54)nc3n2C2CCOCC2)cc1", "IC50": "100 to 1000 nM"}
{"Compound": "Fc1ccc2ncn(-c3ncc4nc(-c5cccc(Cl)c5)n(C5CCOCC5)c4n3)c2c1", "IC50": "100 to 1000 nM"}

Tell me the measured IC50 of N#Cc1ccc2ncn(-c3ncc4nc(NCCN5CCOCC5)n(C5CCOCC5)c4n3)c2c1 , please.
< 100 nM

COC(=O)c1cccc(-c2nc3cnc(-n4cnc5ccc(F)cc54)nc3n2C2CCOCC2)c1 , same question.
100 to 1000 nM

Cc1nc2cnc(-n3cnc4ccc(C#N)cc43)nc2n1C1CCOc2ccc(F)cc21 (centres unmarked) , same question.
< 100 nM
